target: HIV-1 reverse transcriptase (HXB2, group M subtype B) (Human immunodeficiency virus 1, UniProt P04585 SEQ:1-560); assay: inhibition; DDDP, K+ buffer; details: tags: expressed in E. coli; hairpin (CCCT tetraloop) + G4
endpoint: pIC50
Units for pIC50: none; it is -log10 of a concentration expressed in mol/L.

Query: Fill in: pIC50 of CGCCTGACCCTTCAGGCGTTGGGTGGGTGGGTGGG (ssDNA) [S4] is ___
Reply: 7.49
